Measurement target: Prp43 (UniProt P53131 1-767)
Assay procedure: filter binding
Property name: pKd
Scale: pKd equals -log10([C]), with [C] in mol/L.

Query: pKd; subject: GACGGGCUGUUGGUGAUGGAC (ssRNA) [21-mer ssRNA]
7.38

Values compiled from paper PMC5388414.
